# reported apparent KD of MS2 coat protein; entries follow
Test system: MS2 coat protein
Assay notes: apparent KD of MS2 coat protein; designed switch direction (-1 OFF switch, 1 ON switch): -1; higher = weaker reporter binding
Measurement parameters: input ligand: microRNA oligo, concentration not stated
Give a bare numeral; the unit nM is implied.

As a guide, the following entries are already answered.
>  <Sequence code>
UUUUGGCAUGUAGGAUAUGGGUCCGAUUAGGAUUUAGAAGGACAUGAGGAUCACCCAUGUGCAUUUAAUUGGUCUUUACUUUUU [EXclNG1-LROPPY13] (Eterna round: R96, puzzle: Exclusion NG 1)

>  <apparent KD of MS2 coat protein, nM>
61.2

$$$$
>  <Sequence code>
UUUUGGCAUGUAGGAUAUGGGUCCGAUUAGGAUUUAGAAGGACAUGAGGAUCACCCAUGUGCAUUUAAUUGGUCUUUACCUUUU [EXclNG1-LROPPY12] (Eterna round: R96, puzzle: Exclusion NG 1)

>  <apparent KD of MS2 coat protein, nM>
82.1

$$$$
>  <Sequence code>
GGUUGGCGAGGAUAUACAUGAGGAUCACCCAUGUGAGAGAAAAAAGUGAGUAAGAAAAGUAGAAGGCGCUGACG [salish99-ex3-33] (Eterna round: R96, puzzle: Exclusion 3)

>  <apparent KD of MS2 coat protein, nM>
51

$$$$
>  <Sequence code>
GACAUGAGGAUCACCCAUGUAACCUCAUGUAGGAAGGAGAGUAAGGAUAUACAUGAAGGAAUGAAGUAGAAGGUGCAUAGAGAG [Default title] (Eterna round: R96, puzzle: Exclusion NG 3)

>  <apparent KD of MS2 coat protein, nM>
377

$$$$
>  <Sequence code>
UAAGAAUACCGAGGAUAUGGUAGUACAUAUUUACCAGAAGGCGGACUCAACAUGAGGAUCACCCAUGUAUAAAGGGUAUUAGGU [JR_ExcNG1_Sub043] (Eterna round: R96, puzzle: Exclusion NG 1)

>  <apparent KD of MS2 coat protein, nM>
58.3

$$$$

Q: Please report the recorded apparent KD of MS2 coat protein for UCACGGGACUGAGGAUAUACAUGAACCAUUUUUGUAGAAGGCAGAAUGUUUGAUCAUACACUAAACAUGAGGAUCACCCAUGUU [JR_ExcNG1_Sub026] (Eterna round: R96, puzzle: Exclusion NG 1) .
Result: 16.3

Q: Record request: apparent KD of MS2 coat protein value, item UUUUUUUUGCGAGGAUAUGCUUUUAGUAAGUUAGCAGAAGGCGCGUUACAUAGAACCUCUUCUUACAUGAGGAUCACCCAUGUU [JR_ExcNG1_Sub035] (Eterna round: R96, puzzle: Exclusion NG 1)
Result: 56

Q: Which apparent KD of MS2 coat protein reading was recorded for the sequence AGCUGUGGCCGAGGAUAUGACAUGAGGAUCACCCAUGUACAUAAUUAGGCCUGGUAACAGGCUCUUCAGAAGGCGGUCUCAGCA [Eli eng2 - 006] (Eterna round: R96, puzzle: Exclusion NG 2) ?
Result: 6.45

Q: Sample ACGGCGGCUCUAGGAUAUGACGACAUGAGGAUCACCCAUGUAGCCUUAGCCUUCACGAAAAUCGAUCAGAAGGAGAGCUCCAGG [Eternabot solution 19] (Eterna round: R96, puzzle: Exclusion NG 2) — what was its apparent KD of MS2 coat protein?
Result: 10.9

----------
System: MS2 coat protein
Assay notes: apparent KD of MS2 coat protein; higher = weaker reporter binding
Measurement parameters: Eterna round: R107; input ligand: arginine 13.2 mM
Outcome label depends on apparent KD of MS2 coat protein relative to 30 nM: at/above gives criterion met, below gives criterion not met.

Worked set:
>  <Sequence code>
AAAUAAAUAACUGAUACCAGUGUACUGACAUGAGGAUCACCCAUGUUGGGUUUGGUUGUACACCCUUGGCAGCAGAAAUAUAAAA [test (nupak]

>  <Answer label>
criterion not met

$$$$
>  <Sequence code>
UUAUAAGUACCGGUCCUCAGAUCCUCAUGACGAGGACCGGUACGGCCGCCACUCGAAACAUGAGGAUCACCCAUGUAAUAAUAUC [Brourdmod09]

>  <Answer label>
criterion not met

$$$$
>  <Sequence code>
CUACAUUUGUAGAAACCGGUCAACAAUAUUCGAGGACCGGUACGGCCGCCACUCGUAUAAUUUAAUACAUGAGGAUCACCCAUGU [Tryptophan A 4]

>  <Answer label>
criterion not met

$$$$
>  <Sequence code>
AUGCGGUGCGGAAGGAGCGAGUUUGCCUAUUUACAUGAGGAUCACCCAUGUCCUAAUGGGACUCAGGUAGGUCGCCGUUGUCGCA [Same State Arginine B GF 29]

>  <Answer label>
criterion met

$$$$
>  <Sequence code>
GGUAGACGGACGGCCGCCACUCACAUGAGGAUCACCCAUGUAUAGUUGGUAAUCUGGGUUCAGGAGAGGACCGGGUCCUUGUCAG [theeternabot_exclusion_MS2_Trp_B_43]

>  <Answer label>
criterion met

$$$$

Q: Textbook exercise: given the entry GCUGCUUAGGGAAGGAGCGCUGCGGAAUUGUGGAGGACAUGAGGAUCACCCAUGUUCCUGCGGCAGGUAGGUCGCUUUGGGCAGC [#17 Exclusion - Arginine B] , state whether its apparent KD of MS2 coat protein is greater than or equal to 30 nM.
Result: criterion met

----------
System: MS2 coat protein
Assay notes: apparent KD of MS2 coat protein; higher = weaker reporter binding
Measurement parameters: Eterna round: R107; input ligand: theophylline 2 mM
Think of 0.1 µM as a floor: if apparent KD of MS2 coat protein stands on it or above, it is Fulfilled; beneath it, Not fulfilled.

>  <Sequence code>
CAAUAUAUAUGAAGGAGCGACAUGAGGAUCACCCAUGUCUACCACGUCGAAAGACGCUCAUGUCAGGUAGGUCGCAUAUAUAUUG [Astros-Eli-mod4]

>  <Answer label>
Fulfilled

$$$$
>  <Sequence code>
AAUCGUAAGGCGGCCGCCACUACACAUGAGGAUCACCCAUGUCUCGCAGGCUUGCGUUGGGUUAGUAGGACCGGGCCAGUAAUAA [Exclusion - Tryptophan B (Freestyle 15)]

>  <Answer label>
Not fulfilled

$$$$
>  <Sequence code>
UUUAGUCAAUCGGCCGCCACUGACAUGAGGAUCACCCAUGUAGGUAAGGAUCAACCUCGAAAGUACAGGACCGGGAUUCGCCUCU [theeternabot_exclusion_MS2_Trp_B_45]

>  <Answer label>
Not fulfilled

$$$$
>  <Sequence code>
GGGAGAUGAAAAGAUUGAGCUAAAACAGAAGGAGCGUGAAUUAACACAGGUAGGUCGCUGACAACAUGAGGAUCACCCAUGUAUU [Same State Arginine A GF4]

>  <Answer label>
Not fulfilled

$$$$

Consider the record given below.
Q: Can AGAGUCUAGUCGGCCGCCACUCAUGUCCGAAGGACAUGAGGAUCACCCAUGUACCAAUGGUACAUGAGGACCGGGACUGGACUCA [Omei Tryp B SS C v3] be said to have apparent KD of MS2 coat protein at or above 0.1 µM?
Result: Fulfilled

----------
Test system: MS2 coat protein
Assay notes: apparent KD of MS2 coat protein; designed switch direction (-1 OFF switch, 1 ON switch): -1; higher = weaker reporter binding
Measurement parameters: input ligand: FMN 200 uM
Would you mind labelling by apparent KD of MS2 coat protein? At or over 40 nM is Condition met, under is Condition not met.

>  <Sequence code>
AACAAGCUUUAAAGAUCCCACAUGAGGAUCACCCAUGUGCUCGUCUUGUAACGUACUGUGACGAAAGUCACGGUACG [JL TOV1 3.28] (Eterna round: R97, puzzle: Sensor, turn-off variant 1)

>  <Answer label>
Condition not met

$$$$
>  <Sequence code>
UUUGUUUAUGUAGGAUAUGCCUGGCGUGCCUUUGCAGAAGGACAUGAGGAUCACCCAUGUAUUGCGGUCUGCGUUCAGAUCGCA [salish99_ExNG1_r4_038] (Eterna round: R96, puzzle: Exclusion NG 1)

>  <Answer label>
Condition met

$$$$
>  <Sequence code>
GCGGAGAUCGUAUGAUAAUACAUGAGGAUCACCCAUGUGUAUACGAUGCAUGGUACCCGCCGCUUUGCUUGUCUUGC [Eternabot (L1) Solution 30] (Eterna round: R97, puzzle: Sensor, turn-off variant 1)

>  <Answer label>
Condition not met

$$$$

Q: Could you please find out whether UAUUUACAUGAGGAUCACCCAUGUUAGGAUAUGUUUCUAUCGUCGAAAGAUGAUAUUUGCAGAAGGGACAAUAU [LRO-Excl01-28 mod derived from EliFisker 4.24] (Eterna round: R97, puzzle: Exclusion 1) has apparent KD of MS2 coat protein that meets 40 nM or exceeds it?
Result: Condition not met

Q: Textbook exercise: given the entry GAUGUUUAAGGAUAUACAAUGAAUGUAUGCCACAUGGAAAUACAUGAGGAUCACCCAUGUAGAAGGUAAGGGAU [Eternabot (L2) Solution 37] (Eterna round: R97, puzzle: Exclusion 2) , state whether its apparent KD of MS2 coat protein is greater than or equal to 40 nM.
Result: Condition not met

Q: Kindly determine if apparent KD of MS2 coat protein recorded for CCGGUGUGAGGAUAUCCAUCUGGAUCAGACUAGAUCCUGAUGGAGAAGGCACAUGAGGAUCACCCAUGUUACGG [Eli 4x 4.42] (Eterna round: R97, puzzle: Exclusion 4) is above or exactly 40 nM.
Result: Condition met

Q: Hello, I need to know if CAUGUGUUAGGAUAUGCACAGAUCUCCUAAUGGAGAUCUGUGCAGAAGGGACAUGAGGAUCACCCAUGUUGAUG [Mod of Brourd 14 - Jieux - Exclusion 4] (Eterna round: R97, puzzle: Exclusion 4) has measured apparent KD of MS2 coat protein not below 40 nM. Thanks!
Result: Condition met

Q: Decide: apparent KD of MS2 coat protein of CAGGACAGAGGAUAUACAUAGAUACAGAUUCAUGUAGAACUACAUGAGGAUCACCCAUGUAGAAGGCUGUCCUG [Fiskers Ex 2 - 3] (Eterna round: R96, puzzle: Exclusion 2) >= 40 nM?
Result: Condition met

Q: Does the reported apparent KD of MS2 coat protein for UUAACAUGCUGGUGAUCAUACAUGAGGAUCACCCAUGUAACAAGCUUUUUGCUCGUCUUAAUUUAAUUGAUUACUAG [Stov1/8-A1] (Eterna round: R97, puzzle: Sensor, turn-off variant 1) fall at or above the 40 nM mark?
Result: Condition met
